Test system: Galium (catchweed bedstraw, Galium aparine)
PROCEDURE TEXT: Test A postemergence
Type: in vivo
MEASUREMENT CONDITIONS: Galium, post-emergence, 240 h, 125 g ai/ha, postemergence; visual injury on 0 to 100 scale (0 no effect, 100 complete control), approx. 10 d; read-out: Galium plant response rating
REPORTED METRIC: pest or weed control at 125 g/ha

See these solved cases before continuing.
| MOLECULE | RESULT |
| --- | --- |
| C=C(C)c1cccc([C@H]2CN(C)C(=O)[C@@H]2C(=O)Nc2cccc(F)c2C)c1 [Compound 1086] | 20% |
| CN1C[C@H](c2cc(F)cc(F)c2)[C@@H](C(=O)Nc2cnccc2Cl)C1=O [Compound 1096] | 0% |
| CN1C[C@H](c2cc(F)cc(F)c2)[C@@H](C(=O)Nc2ccncc2F)C1=O [Compound 1095] | 0% |
| Cc1ccc([C@H]2CN(C)C(=O)[C@@H]2C(=O)Nc2cnccc2C)cc1 [Compound 1070] | 0% |
| Cc1cc([C@H]2CN(C)C(=O)[C@@H]2C(=O)Nc2ccc(F)cc2F)ccc1Br [Compound 1100] | 0% |
| CN1C[C@H](c2cccc(C(F)(F)F)c2)[C@@H](C(=O)Nc2cnccc2C(F)(F)F)C1=O [Compound 1066] | 50% |

GET /value?item= O=C1NC[C@H](c2ccc(F)c(OC(F)(F)C(F)(F)Br)c2)[C@H]1C(=O)Nc1ccccc1F [Compound 1134] &field=pest or weed control at 125 g/ha returns 20%

Record CN1C[C@H](c2cscn2)[C@@H](C(=O)Nc2ccccc2F)C1=O [Compound 1112] . Reported pest or weed control at 125 g/ha: 0%

====

Tested on: wheat (Triticum aestivum)
PROCEDURE TEXT: Test A postemergence
Type: in vivo
MEASUREMENT CONDITIONS: 500 g ai/ha, postemergence; 0 to 100 scale, 0 no effect, 100 complete control
REPORTED METRIC: Plant response rating, Wheat
Answer field: number only, no words.

| COMPOUND | Plant response rating, Wheat |
| --- | --- |
| Cc1cccc(C2CNC(=O)C2C(=O)Nc2ccccc2C(F)(F)F)c1 (racemic) | 40 |
| CN1CC(c2ccc(Cl)cc2)C(C(=O)Nc2cccc(F)c2F)C1=O (centres unmarked) | 70 |
| Cc1c(F)ccc(NC(=O)C2C(=O)NCC2c2cccc(C(F)(F)F)c2)c1F (centres unmarked) | 0 |

Plant response rating, Wheat in this record for CN1CC(c2ccc(C(F)(F)F)c(F)c2)C(C(=O)Nc2ccccc2F)C1=O (centres unmarked) : 60

Consider Cc1ccc(C2CNC(=O)C2C(=O)Nc2ccc(F)cc2F)cc1F (racemic) . Its measured Plant response rating, Wheat is 20

Just so you know, measured Plant response rating, Wheat for CC(=O)c1ccccc1NC(=O)C1C(=O)NCC1c1ccc(F)c(F)c1 (centres unmarked) came out at 0

Recorded Plant response rating, Wheat (compound Cc1cccc(NC(=O)C2C(=O)NCC2c2cccc(OC(F)F)c2)c1F (centres unmarked) ): 0

Recorded Plant response rating, Wheat (compound O=C1NCC(c2ccc(Br)cc2)C1C(=O)Nc1ccccc1F (centres unmarked) ): 0

For this compound ( CN1CC(c2ccc(F)cc2)C(C(=O)Nc2ccc(F)cc2F)C1=O (centres unmarked) ), measured Plant response rating, Wheat is 50

Measured Plant response rating, Wheat of Cc1ccc(C2CN(C)C(=O)C2C(=O)Nc2ccccc2F)cc1F (centres unmarked) : 70

Measured Plant response rating, Wheat, CN1CC(c2ccc(C(F)(F)F)c(F)c2)C(C(=O)Nc2cccc(F)c2F)C1=O (centres unmarked) : 70

====

Below: a set of entries, each annotated with reported Plant response rating, Barnyardgrass.
System: barnyardgrass (Echinochloa crus-galli)
PROCEDURE TEXT: Test A postemergence
Format: in vivo
MEASUREMENT CONDITIONS: 500 g ai/ha, postemergence; visual injury, 0 to 100 scale (0 no effect, 100 complete control), approx. 10 d

Here's what some known entries look like.
| MOLECULE | Plant response rating, Barnyardgrass |
| --- | --- |
| Cc1ccc(C2CN(C)C(=O)C2C(=O)Nc2ccccc2F)cc1 (stereo not drawn) | 90 |
| Cc1ccc([C@H]2CN(C)C(=O)[C@@H]2C(=O)Nc2ccccc2[S+](C)[O-])cc1Cl (stereo partly drawn) | 90 |
| CN1CC(c2cc(F)cc(F)c2)C(C(=O)Nc2cccc(F)c2F)C1=O (stereo not drawn) | 90 |
| O=C1NCC(c2csc(Br)c2)C1C(=O)Nc1ccccc1F (stereo not drawn) | 80 |

Input Cc1ccc(C2CNC(=O)C2C(=O)Nc2ccc(F)cc2F)cc1C(F)(F)F (racemic) . Output Plant response rating, Barnyardgrass: 60

// recorded Plant response rating, Barnyardgrass for Cc1ccc(C2CNC(=O)C2C(=O)Nc2ccccc2F)cc1C(F)(F)F (racemic) : 90

====

Overview of recorded Plant response rating, Ryegrass, Italian for various molecules
System: ryegrass, Italian (Italian ryegrass, Lolium multiflorum)
PROCEDURE TEXT: Test A postemergence
Assay type: in vivo
MEASUREMENT CONDITIONS: 125 g ai/ha, postemergence; visual rating after approx. 10 d, 0 to 100 scale (0 no effect, 100 complete control)
Output spec: single numeric token, no unit.

Some solved cases for reference:
| MOLECULE | Plant response rating, Ryegrass, Italian |
| --- | --- |
| O=C1NCC(c2ccsc2Br)C1C(=O)Nc1cccc(F)c1F (centres unmarked) [Compound 598] | 0 |
| Cc1ccc(C2CN(C)C(=O)C2C(=O)Nc2ccc(F)cc2F)cc1 (centres unmarked) [Compound 664] | 30 |
| Cc1ccc(C2CN(C)C(=O)C2C(=O)Nc2ccccc2S(C)(=O)=O)cc1 (centres unmarked) [Compound 663] | 40 |
| Cc1ccc(C2CNC(=O)C2C(=O)Nc2ccc(F)cc2F)cc1C(F)(F)F (racemic) [Compound 655] | 0 |

Attention now turns to another entry.
Entry CN1CC(c2ccc(Br)cc2)C(C(=O)Nc2cccc(F)c2F)C1=O (centres unmarked) [Compound 564] ; Plant response rating, Ryegrass, Italian = 60

====

Tested on: barnyardgrass (Echinochloa crus-galli)
PROCEDURE TEXT: Test B flooded paddy test
Type: in vivo
MEASUREMENT CONDITIONS: Echinochloa crus-galli, Flood, 250 g ai/ha; scale of 0 to 100 where 0 is no effect and 100 is complete control; read-out: Barnyardgrass plant response rating
Reported pest or weed control at 250 g/ha is given for each of the following molecules.
Your answer should be a plain number; it is taken to be in %.

Please review the following examples before continuing.
| MOLECULE | MEASUREMENT TARGET | pest or weed control at 250 g/ha (%) |
| --- | --- | --- |
| CC(F)(F)c1cccc([C@H]2CNC(=O)[C@@H]2C(=O)Nc2ccc(F)cc2F)c1 [Compound 781] | barnyardgrass (Echinochloa crus-galli) | 65 |
| Cc1c(F)ccc([C@H]2CNC(=O)[C@@H]2C(=O)Nc2ccccc2C(F)(F)F)c1F [Compound 831] | barnyardgrass (Echinochloa crus-galli) | 0 |
| Cc1c(F)ccc([C@H]2CNC(=O)[C@@H]2C(=O)Nc2ccc(F)c(F)c2F)c1F [Compound 830] | barnyardgrass (Echinochloa crus-galli) | 20 |

Note to self: pest or weed control at 250 g/ha of CN1C[C@H](c2cc(F)cc(F)c2)[C@@H](C(=O)Nc2ccc(C(F)(F)F)cn2)C1=O [Compound 869] with barnyardgrass (Echinochloa crus-galli) was 0

====

compounds and their reported pest or weed control at 31 g/ha
Test system: pigweed (Amaranthus retroflexus)
PROCEDURE TEXT: Test A preemergence
Format: in vivo
MEASUREMENT CONDITIONS: Amaranthus retroflexus, pre-emergence, 240 h, 31 g ai/ha, Preemergence; 0 to 100 scale where 0 is no effect and 100 is complete control; read-out: Pigweed plant response rating
// units = %; emit number, no label

Known results for compounds:
| SMILES TEXT | VALUE UNIT | QUANTITATIVE READOUT |
| --- | --- | --- |
| CN1C[C@H](c2ccc(C(F)(F)F)nc2)[C@@](C)(C(=O)Nc2cccc(F)c2F)C1=O | % | 70 |
| Cc1ccncc1NC(=O)[C@H]1C(=O)N(C)C[C@@H]1c1ccc(C(F)(F)F)cc1 | % | 0 |
| CN1CC[C@H](c2ccccc2C(F)(F)F)[C@@H](C(=O)Nc2ccc(F)c(F)c2F)C1=O | % | 0 |
| CN1C[C@H](c2ccc(C(F)(F)F)cc2)[C@@H](C(=O)Nc2cnccc2C(F)(F)F)C1=O | % | 30 |

# pest or weed control at 31 g/ha (compound: `CN1C[C@H](c2csc3c2CCC3)[C@@H](C(=O)Nc2ccc(F)c(F)c2F)C1=O` ) is 0

`CN1C[C@H](c2cc(C(F)F)cs2)[C@@H](C(=O)Nc2cccc(F)n2)C1=O` yielded pest or weed control at 31 g/ha of 0

Entry `CN1C[C@H](c2cc(F)cc(C(F)(F)F)c2)[C@@H](C(=O)Nc2cccnc2F)C1=O` — recorded pest or weed control at 31 g/ha = 0

The compound `O=C1NC[C@H](c2cc(Br)cc(Br)c2)[C@H]1C(=O)Nc1cccc(F)c1F` showed pest or weed control at 31 g/ha equal to 0
